Target: human Cot catalytic domain (30-397 amino acids) (Homo sapiens)
Construct: Purified recombinant human Cot catalytic domain (30-397 amino acids) was purchased from Cama Biosciences; purchased Cama Biosciences (so in the source)
Experiment: High Throughput Cot Biochemical Assay (KinEASE TR-FRET)
Conditions: Cot KinEASE TR-FRET (HTRF) biochemical assay, 400 μM ATP; read-out: IC50 HTRF
pIC50: −log10 of the molar value.
Decision: pIC50 compared against 8; not below it gives y, below it gives n.

{"columns": ["compound", "studyTarget", "labelValue"],
 "data": [
  ["[2H][C@](Nc1cc(Br)c2ncc(C#N)c(NCC(C)(C)C)c2c1)(c1ccc(F)cc1)c1nnn(C2CC2)c1SC [Compound 13]", "human Cot catalytic domain (30-397 amino acids) (Homo sapiens)", "n"],
  ["[2H][C@](Nc1cc(Cl)c2ncc(C#N)c(NC3(C#N)CC3)c2c1)(c1ccc(F)cc1)c1cn(C2CC2)nn1 [Example 217]", "human Cot catalytic domain (30-397 amino acids) (Homo sapiens)", "n"],
  ["CC(C)(C)CNc1c(C#N)cnc2c(C#N)cc(N[C@@H](c3cccc(C(=O)N4CC(O)C4)c3)c3cn(C4CC4)nn3)cc12 [Example 57]", "human Cot catalytic domain (30-397 amino acids) (Homo sapiens)", "y"],
  ["[2H][C@](Nc1cc(Cl)c2ncc(C#N)c(NCCc3ccccn3)c2c1)(c1ccc(F)cc1)c1cn(C2CC2)nn1 [Example 270]", "human Cot catalytic domain (30-397 amino acids) (Homo sapiens)", "n"],
  ["[2H][C@@](Nc1cc(Cl)c2ncc(C#N)c(Nc3ccc(Cl)c(Cl)c3F)c2c1)(c1cn(C2CC2)nn1)c1ccccc1Cl [Example 183]", "human Cot catalytic domain (30-397 amino acids) (Homo sapiens)", "n"],
  ["[2H][C@](Nc1cc(Cl)c2ncc(C#N)c(NC3COC3)c2c1)(c1ccc(F)cc1)c1cn(C2CC2)nn1 [Example 201]", "human Cot catalytic domain (30-397 amino acids) (Homo sapiens)", "n"],
  ["CC(=O)N(C)c1cccc([C@H](Nc2cc(C#N)c3ncc(C#N)c(NCC(C)(C)C)c3c2)c2cn(C3CC3)nn2)c1 [Compound 9]", "human Cot catalytic domain (30-397 amino acids) (Homo sapiens)", "y"],
  ["[2H][C@](Nc1cc(-c2cncnc2)c2ncc(C#N)c(NCC(C)(C)C)c2c1)(c1ccc(F)cc1)c1cn(C2CC2)nn1 [Compound 12]", "human Cot catalytic domain (30-397 amino acids) (Homo sapiens)", "n"],
  ["[2H][C@](Nc1cc(F)c2ncc(C#N)c(NC(CCC#N)c3ccccc3)c2c1)(c1ccc(F)cc1)c1cn(C2CC2)nn1 (stereo partly shown) [Example 255]", "human Cot catalytic domain (30-397 amino acids) (Homo sapiens)", "y"]
]}

====

Catalogue of IC50 readings, one per entry.
Target: human Cot catalytic domain (30-397 amino acids) (Homo sapiens, UniProt P41279)
Construct: Purified recombinant human Cot catalytic domain (30-397 amino acids) was purchased from Cama Biosciences; purchased Cama Biosciences (so in the source)
Sequence (P41279 30-397): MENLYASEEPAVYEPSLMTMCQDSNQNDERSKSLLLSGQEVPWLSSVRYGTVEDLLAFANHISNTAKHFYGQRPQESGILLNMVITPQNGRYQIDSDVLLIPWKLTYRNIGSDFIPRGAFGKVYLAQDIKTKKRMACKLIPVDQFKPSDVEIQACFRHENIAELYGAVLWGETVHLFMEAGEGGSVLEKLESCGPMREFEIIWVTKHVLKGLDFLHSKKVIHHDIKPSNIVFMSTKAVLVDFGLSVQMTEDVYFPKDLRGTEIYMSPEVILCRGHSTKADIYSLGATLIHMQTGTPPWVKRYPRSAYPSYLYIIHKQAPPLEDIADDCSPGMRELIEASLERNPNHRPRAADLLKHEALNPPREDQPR
Assay: High Throughput Cot Biochemical Assay (KinEASE TR-FRET)
Settings: Cot KinEASE TR-FRET (HTRF) biochemical assay, 400 μM ATP; read-out: IC50 HTRF
measurementType: IC50

{"columns": ["mol", "recordedMeasurement"],
 "data": [
  ["CC(C)(C)CNc1c(C#N)cnc2c(C#N)cc(N[C@@H](c3ccc(Cl)cc3)c3cn(C4CC4)nn3)cc12", "0.009 µM"],
  ["CCN1CCC(n2cc([C@@H](Nc3cc(Cl)c4ncc(C#N)c(Nc5ccc(F)c(Cl)c5)c4c3)c3ccc(F)cc3)nn2)CC1", "0.002 µM"],
  ["[2H][C@](Nc1cc(Cl)c2ncc(C#N)c(NOC(C)(C)C)c2c1)(c1ccc(F)cc1)c1cn(C2CC2)nn1", "0.228 µM"],
  ["[2H][C@](Nc1cc(Cl)c2ncc(C#N)c(Nc3cnc(F)c(F)c3)c2c1)(c1ccc(F)cc1)c1cnn(CF)n1", "1.42 µM"],
  ["[2H][C@](Nc1cc(Cl)c2ncc(C#N)c(N[C@H]3CCCC[C@H]3N)c2c1)(c1ccc(F)cc1)c1cn(C2CC2)nn1", "0.337 µM"],
  ["CC(C)(C)CNc1c(C#N)cnc2c(Cl)cc(N[C@@H](c3cccc(-c4ccccc4)c3)c3cn(C4CC4)nn3)cc12", "0.024 µM"],
  ["[2H][C@](Nc1cc(Cl)c2ncc(C#N)c(NC3(C4CC4)CC3)c2c1)(c1ccc(F)cc1)c1cn(C2CC2)nn1", "0.962 µM"],
  ["[2H][C@](Nc1cc(Cl)c2ncc(C#N)c(NC(C)(C)CC)c2c1)(c1ccc(F)cc1)c1cn(C2CC2)nn1", "0.039 µM"],
  ["[2H][C@](Nc1cc(Cl)c2ncc(C#N)c(Nc3cnc(F)c(F)c3)c2c1)(c1ccc(F)cc1)c1cn(C2CC2)nn1", "0.008 µM"],
  ["CCN1CCC(n2cc([C@@H](Nc3cc(Cl)c4ncc(C#N)c(Nc5ccc(F)c(Cl)c5)c4c3)c3cccc(C(=O)N(C)C)c3)nn2)CC1", "0.001 µM"],
  ["[2H][C@](Nc1cc(Cl)c2ncc(C#N)c(NC34CC(C3)C4)c2c1)(c1ccc(F)cc1)c1cn(C2CC2)nn1", "0.196 µM"],
  ["CC[C@@H](Nc1c(C#N)cnc2c(Cl)cc(N[C@H](c3cn(C4CC4)nn3)c3cc(C#N)ccc3Cl)cc12)c1ccccc1", "0.044 µM"],
  ["[2H]C([2H])(Nc1c(C#N)cnc2c(Cl)cc(N[C@@]([2H])(c3cccc(C#N)c3)c3cn(C4CC4)nn3)cc12)C(C)(C)C", "0.002 µM"]
]}

====

Target: human Cot catalytic domain (30-397 amino acids) (Homo sapiens)
Construct: Purified recombinant human Cot catalytic domain (30-397 amino acids) was purchased from Cama Biosciences; purchased Cama Biosciences (so in the source)
Assay: High Throughput Cot Biochemical Assay (KinEASE TR-FRET)
Details: Cot KinEASE TR-FRET (HTRF) biochemical assay, 400 μM ATP; read-out: IC50 HTRF
pIC50: −log10 of the molar value.
Decision: pIC50 compared against 8; not below it gives satisfied, below it gives not satisfied.

{"columns": ["compound", "labelValue"],
 "data": [
  ["[2H][C@](Nc1cc(Cl)c2ncc(C#N)c(N[C@@H](CCC#N)c3ccccc3)c2c1)(c1ccc(F)cc1)c1cn(C2CC2)nn1 [Example 248]", "not satisfied"],
  ["CC(C)(C)N1CCC(n2cc([C@@H](Nc3cc(Cl)c4ncc(C#N)c(Nc5ccc(F)c(Cl)c5)c4c3)c3cccc(C(=O)O)c3)nn2)CC1 [Compound 19]", "satisfied"],
  ["CC[C@@H](Nc1c(C#N)cnc2c(Cl)cc(N[C@@H](c3ccc(F)cc3)c3cn(CC(=O)O)nn3)cc12)c1ccccc1 [Example 115]", "satisfied"],
  ["[2H][C@](Nc1cc(-c2ccnnc2)c2ncc(C#N)c(NCC(C)(C)C)c2c1)(c1ccc(F)cc1)c1cn(C2CC2)nn1 [Example 75]", "not satisfied"],
  ["CC(C)(C)CNc1c(C#N)cnc2c(C#N)cc(N[C@@H](c3cccc(NS(C)(=O)=O)c3)c3cn(C4CC4)nn3)cc12 [Example 68]", "satisfied"]
]}

====

Molecular target: human Cot catalytic domain (30-397 amino acids) (Homo sapiens, UniProt P41279)
Construct: Purified recombinant human Cot catalytic domain (30-397 amino acids) was purchased from Cama Biosciences; purchased Cama Biosciences (so in the source)
Assay: High Throughput Cot Biochemical Assay (KinEASE TR-FRET)
Settings: Cot KinEASE TR-FRET, 400 μM ATP; read-out: IC50 HTRF
pIC50: −log10 of the molar value.
Catalogue of pIC50 readings, one per entry.
measurementType: pIC50

{"columns": ["molecule", "inequalitySign", "recordedMeasurement"],
 "data": [
  ["CC(C)(C)CNc1c(C#N)cnc2c(C#N)cc(N[C@@H](c3ccc(F)cc3)c3cn(C4(C(N)=O)CCC4)nn3)cc12", "=", 8.40],
  ["Cc1c(-c2ccnnc2)cccc1[C@H](Nc1cc(Cl)c2ncc(C#N)c(NCC(C)(C)C)c2c1)c1cn(C2(C(F)F)CC2)nn1", "=", 8.70],
  ["Cc1c(-c2ccccn2)cccc1[C@H](Nc1cc(Cl)c2ncc(C#N)c(NCC(C)(C)C)c2c1)c1cn(C2(C(F)(F)F)CC2)nn1", "=", 7.55],
  ["Cc1c(-c2cn[nH]c2)cccc1[C@H](Nc1cc(C#N)c2ncc(C#N)c(NCC(C)(C)C)c2c1)c1cn(C2(C(F)F)CC2)nn1", "=", 8.70],
  ["Cc1c([C@H](Nc2cc(Cl)c3ncc(C#N)c(NCC(C)(C)C)c3c2)c2cn(C3(C(F)F)CC3)nn2)cccc1-n1cnnc1", "=", 8.70],
  ["[2H][C@](Nc1cc(C#N)c2ncc(C#N)c(NCC(C)(C)C)c2c1)(c1ccc(F)cc1)c1cn(Cc2c(F)cccc2F)nn1", "=", 7.92],
  ["CC[C@@H](Nc1c(C#N)cnc2c(Br)cc(N[C@@H](c3cccc(-c4ncco4)c3)c3cn(C4CC4)nn3)cc12)c1ccccc1", "=", 8.40],
  ["COc1cccc(C(Nc2cc(Cl)c3ncc(C#N)c(Nc4ccc(F)c(Cl)c4)c3c2)c2cn(C3CCN(C(=O)OCc4ccccc4)CC3)nn2)c1 (stereo not shown)", "<", 6.00],
  ["CC(C)(C)CNc1c(C#N)cnc2c(C#N)cc(N[C@H](c3cn(C4(C(N)=O)CCCC4)nn3)c3ccccc3Cl)cc12", "=", 8.22],
  ["Cc1c(-c2cnco2)cccc1[C@H](Nc1cc(C#N)c2ncc(C#N)c(NCC(C)(C)C)c2c1)c1cn(C2(C(F)F)CC2)nn1", "=", 8.70],
  ["CC(C)(C)CNc1c(C#N)cnc2c(C#N)cc(N[C@@H](c3ccc(F)cc3)c3cn(C4(c5ccccn5)CC4)nn3)cc12", "=", 7.77],
  ["[2H]C(Nc1cc(Cl)c2ncc(C#N)c(NCC(C)(C)C)c2c1)(c1cn(C2(C3CC3)CC2)nn1)c1ccccc1Cl (stereo not shown)", "=", 7.51],
  ["[2H][C@](Nc1cc(-c2cncnc2)c2ncc(C#N)c(N[C@H](CCC(=O)O)c3ccccc3)c2c1)(c1ccc(F)cc1)c1cn(C2CC2)nn1", "≤", 5.00]
]}

Every entry's value here was drawn from patent US10316017B2.
